Reported Percent Positive for Siglec-6 on HMC1.2 cells values follow for various binders
- assay target: T1, Human siglec-6 expressed on the cell surface (HMC1.2 cells; HEK293 cells expressing human siglec-6) (human, UniProt O43699 27-453)
- T1 construct: whole, on cells; also called cell surface expressed siglec-6; CD327
- T1 sequence (O43699 27-453): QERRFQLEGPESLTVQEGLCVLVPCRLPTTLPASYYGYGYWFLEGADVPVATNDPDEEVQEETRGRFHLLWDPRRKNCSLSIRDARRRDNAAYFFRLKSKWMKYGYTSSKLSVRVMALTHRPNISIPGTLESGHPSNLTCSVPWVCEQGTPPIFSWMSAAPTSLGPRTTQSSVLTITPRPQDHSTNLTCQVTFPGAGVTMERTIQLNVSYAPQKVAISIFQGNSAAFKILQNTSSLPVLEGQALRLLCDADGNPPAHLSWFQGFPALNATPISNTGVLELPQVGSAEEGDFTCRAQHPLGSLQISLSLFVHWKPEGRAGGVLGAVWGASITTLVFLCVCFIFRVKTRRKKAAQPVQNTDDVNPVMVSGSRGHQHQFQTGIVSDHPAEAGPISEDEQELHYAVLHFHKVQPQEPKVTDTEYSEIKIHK
- assay info: flow cytometry on HMC1.2 cells
Give the value; after it, write the unit.

# count of solved cases: 3
hRND-4 (antibody, human IgG1, kappa, V domains shown, also called humanized RND-4; hRND-H2b / hRND-L3; copies: 2 + 2) VH: QVQLVQSGAEVKKPGASVKVSCKASGYAFTSYWMHWVRQAPGQRLEWMGEIYPTNGGTTYNEKFKRRVTMTVDKSTSTAYMELSRLRSDDTAVYYCTIEDFYAMDYWGQGTTVTVSS VL: DIVMTQTPLSLSVTPGQPASISCKSSQSLLDSDGKTSLNWLLQKPGQSPQRLIYLVSKLDSGVPDRFSGSGSGTDFTLKISRVEAEDVGVYYCWQGTHFPYTFGQGTKLEIKR: 100%
hRND-5 (antibody, human IgG1, kappa, V domains shown, also called humanized RND-5; hRND-H3b / hRND-L3; copies: 2 + 2) VH: QVQLVQSGAEVKKPGASVKLSCKASGYAFTSYWMHWVRQAPGQRLEWIGEIYPTNGGTTYNEKFKRRATLTVDKSTSTAYMELSRLRSDDTAVYYCTIEDFYAMDYWGQGTTVTVSS VL: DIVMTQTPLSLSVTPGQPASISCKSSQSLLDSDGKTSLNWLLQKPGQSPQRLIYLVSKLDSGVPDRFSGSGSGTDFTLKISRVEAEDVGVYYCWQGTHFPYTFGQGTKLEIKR: 99.9%
hRND-2 (antibody, human IgG1, kappa, V domains shown, also called humanized RND-2; hRND-H2 / hRND-L3; copies: 2 + 2) VH: QVQLVQSGAEVKKPGASVKVSCKASGYAFTSYWMHWVRQAPGQRLEWMGEIYPTNGGTTYAQKFQGRVTMTVDKSTSTAYMELSRLRSDDTAVYYCTIEDFYAMDYWGQGTTVTVSS VL: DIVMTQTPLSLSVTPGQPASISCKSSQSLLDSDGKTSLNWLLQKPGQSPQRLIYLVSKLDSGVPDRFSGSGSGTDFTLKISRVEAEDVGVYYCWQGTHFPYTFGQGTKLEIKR: 99.9%

From here, focus on the item given below.
GET /values?readout=Percent Positive for Siglec-6 on HMC1.2 cells&item= hRND-3 (antibody, human IgG1, kappa, V domains shown, also called humanized RND-3; hRND-H3 / hRND-L3; copies: 2 + 2) VH: QVQLVQSGAEVKKPGASVKLSCKASGYAFTSYWMHWVRQAPGQRLEWIGEIYPTNGGTTYAQKFQGRATLTVDKSTSTAYMELSRLRSDDTAVYYCTIEDFYAMDYWGQGTTVTVSS VL: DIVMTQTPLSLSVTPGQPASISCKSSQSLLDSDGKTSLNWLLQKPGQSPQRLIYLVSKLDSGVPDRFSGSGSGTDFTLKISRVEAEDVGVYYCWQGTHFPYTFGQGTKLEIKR 99.9%
